target: hSLN (Homo sapiens)
Sequence (P08254 100-477): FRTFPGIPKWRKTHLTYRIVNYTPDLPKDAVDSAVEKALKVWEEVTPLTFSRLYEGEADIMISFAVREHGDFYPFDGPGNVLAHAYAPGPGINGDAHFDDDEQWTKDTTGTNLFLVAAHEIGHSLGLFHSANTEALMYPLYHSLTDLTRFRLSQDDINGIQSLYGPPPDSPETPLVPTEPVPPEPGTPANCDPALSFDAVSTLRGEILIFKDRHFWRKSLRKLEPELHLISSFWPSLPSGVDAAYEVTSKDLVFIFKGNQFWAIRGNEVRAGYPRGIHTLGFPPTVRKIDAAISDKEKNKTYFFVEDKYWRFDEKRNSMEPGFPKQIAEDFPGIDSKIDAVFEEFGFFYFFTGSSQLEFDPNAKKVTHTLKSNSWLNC
pKi: −log10 of the molar value.

{"columns": ["Query Smiles", "pKi"],
 "data": [
  ["CC1(C)SCCN(S(=O)(=O)c2ccc(Oc3cc[n+]([O-])cc3)cc2)[C@H]1C(=O)NO", 8.29]
]}
